ASSAY: modulation of AI-2 quorum-sensing luminescence – JMH597 strain, luminescence/OD600 ratio, primary screen (AID 2094);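 note: luminescence divided by OD600 gain over 9 h not by final OD600 alone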
CONDITION INFO: Vibrio harveyi JMH597 AI-2 luminescence/OD600 ratio, 9 h; at 7.5 µM; active compounds read low; 0 = neutral-control median; strain lacks LuxN and CqsS sensors
Out of some 300,000 compounds screened, about 1,200 (0.4%) were called active. The list comes from a sample in which actives are over-represented; it also holds close analogues and randomly drawn compounds.
Assign labels as follows, please: Satisfied for activity change below 20%; Not satisfied for activity change equal to or exceeding 20%.

Here are 4 compounds together with their reported answers.
compound=COc1ccc(/C(N)=N/OC(=O)Cc2ccccc2)cc1 qualitative_label=Satisfied
compound=O=C(NC1CCN(C(=S)Nc2ccc(Cl)cc2)CC1)C1CCCCC1 qualitative_label=Satisfied
compound=O=C(O)c1ccc(N/N=C/c2cn(-c3ccccc3)nc2-c2cccs2)cc1 qualitative_label=Satisfied
compound=COc1ccc(-c2nn(-c3ccccc3)cc2/C=C\C(=O)Nc2ccc(C(=O)O)cc2)cc1 qualitative_label="Not satisfied"

Challenge: Please let me know if COc1ccc(/C(N)=N/OC(=O)CCCc2ccccc2)cc1 shows activity change below 20%.
Response given: Not satisfied

Challenge: Please let me know if Cn1nccc1C(=O)N1CCCC(C(=O)c2ccc(Oc3ccccc3)cc2)C1 (centres undefined) shows activity change below 20%.
Response given: Satisfied

Challenge: Please let me know if Cc1ccccc1C(=O)NC(=S)Nc1ccc(N2CCN(C(=O)c3ccccc3)CC2)cc1 shows activity change below 20%.
Response given: Satisfied

Challenge: Please let me know if Oc1ccc2ccc3cccc[n+]3c2c1 shows activity change below 20%.
Response given: Not satisfied

###

ASSAY: modulation of AI-2 quorum-sensing luminescence – JMH597 strain, luminescence/OD600 ratio, primary screen (AID 2094);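 note: luminescence divided by OD600 gain over 9 h not by final OD600 alone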
CONDITION INFO: Vibrio harveyi JMH597 AI-2 luminescence/OD600 ratio, 9 h; at 7.5 µM; 0 = neutral-control median; strain lacks LuxN and CqsS sensors
Screen size: about 300,000 compounds; about 1,200 (0.4%) were called active. Rule as the data show it: active = activity change below about -75% (passing the limit was not always enough); inconclusive = no clear call, values can overlap the other calls. Only a selection was taken, and actives are over-represented in it overall.
Thanks in advance; please answer with one of these: active, inactive

Challenge: Which outcome did this test record for the compound O=C(O)c1ccc(S(=O)(=O)N2CCC(Cc3ccccc3)CC2)cc1 ?
Response given: inactive

Challenge: Which outcome did this test record for the compound COc1ccc(C(=O)NCc2nnc(SCC(=O)NC3=NCCS3)n2C)cc1 ?
Response given: inactive

###

ASSAY: modulation of AI-2 quorum-sensing luminescence – JMH597 strain, luminescence/OD600 ratio, primary screen (AID 2094);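 note: luminescence divided by OD600 gain over 9 h not by final OD600 alone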
CONDITION INFO: Vibrio harveyi JMH597 AI-2 luminescence/OD600 ratio, 9 h; at 7.5 µM; active compounds read low; 0 = neutral-control median; strain lacks LuxN and CqsS sensors
In all, about 300,000 compounds went through this assay and about 1,200 (0.4%) were called active. The entries come from a sample that favours actives as a whole.
Readings of activity change for the listed compounds
Just the number please, in %, no unit attached.

As a guide, the following entries are already answered.
structure=COc1cccc(NC(=O)NCCN2CCCCC2)c1 property_name="activity change" scale_unit=% quantitative_result=8.92
structure=O=C(NCc1cccc(CNC(=O)Nc2cccc(O)c2)c1)Nc1cccc(O)c1 property_name="activity change" scale_unit=% quantitative_result=3.61
structure=Cc1ccc(NS(=O)(=O)c2ccc3c(c2)NC(=O)CO3)cc1 property_name="activity change" scale_unit=% quantitative_result=-85.9

The measured activity change associated with Cc1cccc(CCNS(=O)(=O)c2ccc3c(c2)NC(=O)CO3)c1 reads -59.5

The measured activity change associated with O=C(NC(=S)Nc1ccccc1C(=O)O)c1ccc(-c2ccc(Br)cc2)o1 reads 9.83

###

ASSAY: modulation of AI-2 quorum-sensing luminescence – JMH597 strain, luminescence/OD600 ratio, primary screen (AID 2094);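 note: luminescence divided by OD600 gain over 9 h not by final OD600 alone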
CONDITION INFO: Vibrio harveyi JMH597 AI-2 luminescence/OD600 ratio, 9 h; at 7.5 µM; active compounds read low; 0 = neutral-control median; strain lacks LuxN and CqsS sensors
About 1,200 (0.4%) of roughly 300,000 compounds were called active. For the sample, actives were picked, then their nearest neighbours and some compounds at random.
PROPERTY NAME: activity change (%)
Just the number please, in %, no unit attached.

As a guide, the following entries are already answered.
molecule=CC1CCN(C(=O)Cn2nnnc2CN2CCOCC2)CC1 scale_unit=% quantitative_result=8
molecule=Cc1ccc(C(=O)O)cc1N1C(=O)CCCC1=O scale_unit=% quantitative_result=28.2
molecule=Cc1ccc(C(=O)N2CCN(S(=O)(=O)N3CCOCC3)CC2)cc1 scale_unit=% quantitative_result=14.3
molecule=O=C(/C=C/c1ccc(F)cc1)NCCNC(=O)/C=C/c1ccc(F)cc1 scale_unit=% quantitative_result=20.3
molecule=COc1ccc(Oc2c(Cl)cnn(-c3ccccc3)c2=O)cc1 scale_unit=% quantitative_result=8.72

Please look at the following molecule next.
The measured activity change associated with CCCC1NC(=O)NC(C)=C1C(=O)OCC (configuration not stated) reads 2.55

###

ASSAY: modulation of AI-2 quorum-sensing luminescence – JMH597 strain, luminescence/OD600 ratio, primary screen (AID 2094);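 note: luminescence divided by OD600 gain over 9 h not by final OD600 alone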
CONDITION INFO: Vibrio harveyi JMH597 AI-2 luminescence/OD600 ratio, 9 h; at 7.5 µM; active compounds read low; 0 = neutral-control median; strain lacks LuxN and CqsS sensors
Screen size: about 300,000 compounds; about 1,200 (0.4%) were called active. This excerpt belongs to a sample that is enriched for actives.
Readings of activity change for the listed compounds

As a guide, the following entries are already answered.
compound=CCOc1ccc(/C=N/NC(N)=S)cc1 result="-94.8% (active)"
compound=CCc1ccc(S(=O)(=O)N/N=C\c2ccc([N+](=O)[O-])o2)cc1 result="28.2% (inactive)"

The measured activity change associated with CCCc1ccc(OCCNC(=O)c2ccccc2Br)cc1 reads 28.5% (inactive)

The measured activity change associated with CC(C)(C)OC(=O)CNC(=O)c1[nH]cnc1C(=O)N[C@@H](Cc1ccccc1)C(=O)OCc1ccccc1 reads 20.9% (inactive)

The measured activity change associated with O=C(Cc1ccc2c(c1)CCCC2)Nc1ccccc1Cl reads -3.68% (inactive)

The measured activity change associated with COc1cccc(NC(=O)c2ccc(S(=O)(=O)N(C)C)cc2)c1 reads 14.9% (inactive)

The measured activity change associated with O=C(COc1ncnc2ccccc12)NC(=O)NCc1ccccc1 reads -86.9% (active)

The measured activity change associated with O=C(/C=C/c1ccc([N+](=O)[O-])o1)NNC(=O)c1ccc(F)cc1 reads -90.7% (active)

The measured activity change associated with O=C(COc1ccc([N+](=O)[O-])cc1)Nc1ccc(N2CCCC2)cc1 reads 44.5% (inactive)

The measured activity change associated with CCN1C(=NCCc2cccnc2)N[C@@H](c2ccccc2)C(C(=O)OC)=C1C reads 8.09% (inactive)

The measured activity change associated with COc1ccc(CN(C)C(=O)c2cc(-c3ccc(C)cc3C)nc3ccccc23)c(OC)c1OC reads 10.3% (inactive)

The measured activity change associated with CCCOCC(O)CC(CC)C(=O)NNC(=S)Nc1ccccc1 (stereo not given) reads 0.623% (inactive)

The measured activity change associated with CCOc1ccc(NC(=O)CC(Cc2ccc(Cl)cc2)C(=O)O)cc1 (stereo not given) reads -20.6% (inactive)

###

ASSAY: modulation of AI-2 quorum-sensing luminescence – JMH597 strain, luminescence/OD600 ratio, primary screen (AID 2094);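 note: luminescence divided by OD600 gain over 9 h not by final OD600 alone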
CONDITION INFO: Vibrio harveyi JMH597 AI-2 luminescence/OD600 ratio, 9 h; at 7.5 µM; active compounds read low; 0 = neutral-control median; strain lacks LuxN and CqsS sensors
About 1,200 (0.4%) of roughly 300,000 compounds were called active. Shown is part of a subset that was picked to be rich in actives.
PROPERTY NAME: activity change (%)
Just the number please, in %, no unit attached.

As a guide, the following entries are already answered.
structure=Cc1ccc(OCc2cc(C(=O)N(C)CCc3ccccc3)no2)cc1C property_name="activity change" quantitative_result=36
structure=Cc1cc(CN(C)C(=O)c2cc(COc3ccc(C)c(C)c3)on2)n[nH]1 property_name="activity change" quantitative_result=-90.7
structure=CN(Cc1cccnc1)C(=O)c1cc(COc2ccc3ncccc3c2)on1 property_name="activity change" quantitative_result=38.5
structure=CN(Cc1cnccn1)C(=O)c1cc(COc2cccc(C(F)(F)F)c2)on1 property_name="activity change" quantitative_result=-92.5

Please look at the following molecule next.
The measured activity change associated with CCN(CC)c1ccc(NC(=O)c2ccc(=O)[nH]c2)cc1S(=O)(=O)Nc1ccc(OC)cc1 reads 18.7

###

ASSAY: modulation of AI-2 quorum-sensing luminescence – JMH597 strain, luminescence/OD600 ratio, primary screen (AID 2094);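 note: luminescence divided by OD600 gain over 9 h not by final OD600 alone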
CONDITION INFO: Vibrio harveyi JMH597 AI-2 luminescence/OD600 ratio, 9 h; at 7.5 µM; active compounds read low; 0 = neutral-control median; strain lacks LuxN and CqsS sensors
Among all 300,000 compounds or so, about 1,200 (0.4%) were called active. The list comes from a sample in which actives are over-represented; it also holds close analogues and randomly drawn compounds.
PROPERTY NAME: activity change (%)
Just the number please, in %, no unit attached.

As a guide, the following entries are already answered.
molecule=COc1ccccc1NC(=O)COC(=O)Cc1ccc(S(=O)(=O)N2CCCCC2)s1 quantitative_result=2.99
molecule="CC12CCC(=O)N1C(C(=O)NCCN1C(=O)S/C(=C\\c3ccccc3F)C1=O)CS2 (stereo not given)" quantitative_result=17
molecule=Cc1cc(C)n(CCNCc2c(C(=O)N3C[C@@H](C)O[C@@H](C)C3)nc3ccc(Cl)cn23)n1 quantitative_result=11
molecule=CC(C)c1ccc(/C=C/C(=O)NNC(=O)c2cccnc2)cc1 quantitative_result=5.1

Please look at the following molecule next.
The measured activity change associated with O=S(=O)(c1ccc(Cl)cc1)N1CCCN(c2ccc(C(F)(F)F)cn2)CC1 reads 6.59
